Sourced from paper PMC5540273

Reported %Inh by item:
Test system: HIPK1
Conditions: concentration: 1 μM, replicates: in singlicate; n = 1
parameter: %Inh

{"compound": "Cc1cc(NCC(c2ccccc2)c2ccccc2)nc(NCc2ccc(C(F)(F)F)cc2)n1", "result": "0%"}
{"compound": "COc1cccc(-c2cc(-c3c[nH]nc3-c3ccccn3)ccn2)c1", "result": "11%"}
{"compound": "COc1ccccc1CNC(=O)c1cc(C(=O)c2ccccc2C)c[nH]1", "result": "0%"}
{"compound": "Cc1nnc(-c2ccc3occ(-c4ccc(S(C)=O)cc4)c3c2)[nH]1 (stereo not drawn)", "result": "69%"}
{"compound": "O=S(=O)(c1ccc(-c2ccnc3[nH]ccc23)cc1)N1CCCC1", "result": "45%"}
{"compound": "COc1ccc(Nc2nccc(-c3cccc(NC(=O)c4cc5cc(F)ccc5[nH]4)c3)n2)cc1", "result": "0%"}
{"compound": "CC(C)(C)c1ccc(C(=O)Nc2cn3cc(Cl)ccc3n2)cc1", "result": "0%"}
{"compound": "O=C(Nc1ccccc1)Nc1cccc(Oc2ccc3nccn3n2)c1", "result": "0%"}
{"compound": "Cn1ccc2ncnc(Oc3ccc(Nc4nc5ccccc5[nH]4)cc3)c21", "result": "17%"}

====

Tested on: CIT
Conditions: concentration: 1 μM, replicates: in singlicate; n = 1
parameter: %Inh (%)

{"compound": "CC(C)(C)c1ccc(C(=O)Nc2cn3cc(-c4cccnc4)ccc3n2)cc1", "quantitative_readout": 28}
{"compound": "Cl.Oc1ccc(-c2nc(-c3ccccc3)[nH]c2-c2ccncc2)cc1", "quantitative_readout": 0}
{"compound": "Cc1c(O)cccc1Nc1ccnc2ccc(C(F)(F)F)cc12.Cl", "quantitative_readout": 42}
{"compound": "CCCc1ccc(S(=O)(=O)NC2CCN(c3ccnc(Nc4ccc(F)cc4)n3)C2)cc1 (stereo not drawn)", "quantitative_readout": 0}
{"compound": "COc1cc(Nc2nccc(N3CCC(NC(=O)Nc4cc(C)ccc4C)C3)n2)cc(OC)c1OC (stereo not drawn)", "quantitative_readout": 11}
{"compound": "COc1cc2ncnc(Nc3ccc4nc(-c5ccccc5)[nH]c4c3)c2cc1OC.Cl", "quantitative_readout": 59}
{"compound": "Cc1cccc(-c2nc(C)cc(Nc3ccncc3)n2)n1", "quantitative_readout": 23}
{"compound": "O=C(Nc1ccccc1)Nc1cccc(Oc2ccc3nccn3n2)c1", "quantitative_readout": 100}
{"compound": "CS(=O)(=O)c1ccc(-c2c(-c3ncn[nH]3)sc(N3CCOCC3)c2C#N)cc1", "quantitative_readout": 4}

====

Tested on: JNK3;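 also: kd values determined as follow-up on hits from a single-replicate KINOMEscan panel screen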
Construct: gene MAPK10

{"cpd_smiles": "COC(=O)c1c(-c2ccccc2)c2cc(OC)ccc2c(=O)n1Cc1ccccc1", "Kd, nM": 110}

====

Reported %Inh by item:
Test system: EPHB1
Settings: concentration: 1 μM, replicates: in singlicate; n = 1

{"molecule": "O=C(Nc1n[nH]c2cc(-c3cccc(F)c3F)ccc12)C1CC1 [SB-733894]", "unit_annotation": "%", "%Inh": 0}
{"molecule": "Cl.Oc1ccc(-c2nc(-c3ccccc3)[nH]c2-c2ccncc2)cc1 [SB-428218]", "unit_annotation": "%", "%Inh": 0}
{"molecule": "CS(=O)(=O)c1ccc(-c2nc3n(c2-c2ccncc2)CCC3)cc1 [SKF-105942]", "unit_annotation": "%", "%Inh": 8}
{"molecule": "Clc1cc(Cl)cc(Nc2ccnc(Nc3cc(Cl)cc(Cl)c3)n2)c1 [GSK175726]", "unit_annotation": "%", "%Inh": 1}
{"molecule": "COc1ccc(Nc2nccc(NCCNC(=O)Nc3ccccc3F)n2)cc1 [GSK1379901]", "unit_annotation": "%", "%Inh": 0}
